- SUBJECT OF TEST: HLA-A*02:01
- MEASUREMENT NOTES: IEDB peptide-MHC binding, purified MHC/competitive/radioactivity; bounds were set here for any values at or beyond the usual limits of such assays
- CONDITION DETAILS: source organism: Human alphaherpesvirus 1
IC50 vs 60 nM: less than gives 1.0; not less than gives 0.0.

The following sequences have reported results that may help.
BIOPOLYMER SEQUENCE: GLGRHLWRL
ANSWER LABEL: 0.0
--
BIOPOLYMER SEQUENCE: VLADDVYPL
ANSWER LABEL: 1.0
--
BIOPOLYMER SEQUENCE: DMTPAELEV
ANSWER LABEL: 0.0
--
BIOPOLYMER SEQUENCE: SLLLVVEGV
ANSWER LABEL: 1.0

For VMAARPMVV , is the recorded IC50 below the cut-off of 60 nM? 0.0

Here's an entry: RLARCLTPA . Is its IC50 below 60 nM? 1.0

Strictly below 60 nM: is that where IC50 of SLLSLEHTL sits? 1.0

I wonder whether ALVELNSGV has IC50 below 60 nM. Can you tell? 1.0

Say whether its IC50 is strictly beneath 60 nM. Entry: LLLISMYAL 1.0

Does LLPAVQCAV have IC50 strictly under 60 nM? 0.0

Is the reported IC50 for KLLALLGQV strictly below 60 nM? 1.0

###

- SUBJECT OF TEST: HLA-A*02:01
- MEASUREMENT NOTES: IEDB peptide-MHC binding, purified MHC/competitive/radioactivity; bounds were set here for any values at or beyond the usual limits of such assays
- CONDITION DETAILS: source organism: Human alphaherpesvirus 1
pIC50: −log10 of the molar value.
So basically: pIC50 at 7 or higher? That is criterion met. Lower than 7? That is criterion not met.

BIOPOLYMER SEQUENCE: TLRDTIPDC
SUBJECT OF TEST: HLA-A*02:01
ANSWER LABEL: criterion not met
--
BIOPOLYMER SEQUENCE: KMNQTLLFL
SUBJECT OF TEST: HLA-A*02:01
ANSWER LABEL: criterion not met
--
BIOPOLYMER SEQUENCE: SLFDCIVPV
SUBJECT OF TEST: HLA-A*02:01
ANSWER LABEL: criterion met
--
BIOPOLYMER SEQUENCE: YLALLEACL
SUBJECT OF TEST: HLA-A*02:01
ANSWER LABEL: criterion met
--
BIOPOLYMER SEQUENCE: FLALVSNRV
SUBJECT OF TEST: HLA-A*02:01
ANSWER LABEL: criterion met

Answer whether pIC50 of LITNYLPSV is greater than or equal to 7. criterion met

pIC50 >= 7 for ELACLLMYL ? criterion met

###

- SUBJECT OF TEST: HLA-A*02:01
- MEASUREMENT NOTES: IEDB peptide-MHC binding, purified MHC/competitive/radioactivity; bounds were set here for any values at or beyond the usual limits of such assays
- CONDITION DETAILS: source organism: Human alphaherpesvirus 1
Label satisfied when IC50 < 60 nM; otherwise not satisfied.

is_below(IC50, 60 nM) for AVLADFSLV ? not satisfied

Strictly below 60 nM: is that where IC50 of FTATSIARV sits? not satisfied

Does the reported IC50 of YVLNSQIAV stay below 60 nM? not satisfied

###

- SUBJECT OF TEST: HLA-A*02:01
- MEASUREMENT NOTES: IEDB peptide-MHC binding, purified MHC/competitive/radioactivity; bounds were set here for any values at or beyond the usual limits of such assays
- CONDITION DETAILS: source organism: Human alphaherpesvirus 1
This listing pairs sequences with measured IC50.
// return numeric value only (unit: nM, not printed)

Use the examples below as a reference point.
BIOPOLYMER SEQUENCE: WLETELVFV
UNITS SYMBOL: nM
MEASURED RESULT: 85
--
BIOPOLYMER SEQUENCE: FMAAKAAHL
UNITS SYMBOL: nM
MEASURED RESULT: 276
--
BIOPOLYMER SEQUENCE: YLSEEMMEL
UNITS SYMBOL: nM
MEASURED RESULT: 6.3
--
BIOPOLYMER SEQUENCE: FLRYHCPGL
UNITS SYMBOL: nM
MEASURED RESULT: 188

Query (sequence): HLCRYVALL ; field requested: IC50 200

###

- SUBJECT OF TEST: HLA-A*02:01
- MEASUREMENT NOTES: IEDB peptide-MHC binding, purified MHC/competitive/radioactivity; bounds were set here for any values at or beyond the usual limits of such assays
- CONDITION DETAILS: source organism: Human alphaherpesvirus 1
PROPERTY MEASURED: IC50 (nM)
Give the quantity in nM, number only.

Past entries and their recorded results:
BIOPOLYMER SEQUENCE: GLLFVLLVA
IC50 / nM: 1060
--
BIOPOLYMER SEQUENCE: LLAPGPLFV
IC50 / nM: 5.6
--
BIOPOLYMER SEQUENCE: FTLPVLTFV
IC50 / nM: 1.1
--
BIOPOLYMER SEQUENCE: GLISFYNFL
IC50 / nM: 1.5
--
BIOPOLYMER SEQUENCE: FLADAVVRL
IC50 / nM: 52

Entry FVALIPPTL has what IC50? 704

# get_value(readout='IC50', item= DLAEWVPRV ) 4.3

Value lookup for IC50; key = VLANFCSAL 14

What value of IC50 has been recorded for this entry: GLAVVLWSL 17

Return reported IC50; argument: VLFSGPSPL 7.9

If you can, please state the reported IC50 value of FIAPLGFSL . 6.5

###

- SUBJECT OF TEST: HLA-A*02:01
- MEASUREMENT NOTES: IEDB peptide-MHC binding, purified MHC/competitive/radioactivity; bounds were set here for any values at or beyond the usual limits of such assays
- CONDITION DETAILS: source organism: Human alphaherpesvirus 1
PROPERTY MEASURED: log10 IC50 (log10 of the value in µM)
On a log10 scale: recorded IC50, unit µM.

Please review the entries below; each comes with its answer.
BIOPOLYMER SEQUENCE: ALMLRLLRI
log10 IC50: -1.34
//
BIOPOLYMER SEQUENCE: HMGEVPPRL
log10 IC50: 0.24
//
BIOPOLYMER SEQUENCE: GLFVSLPVV
log10 IC50: -2.33

# returns recorded log10 IC50 (system: HLA-A*02:01) for FLAPELVRA -1.92

So what log10 IC50 did FLEDLSYPA get with HLA-A*02:01? -3.19

Param readout= log10 IC50; system= HLA-A*02:01; entry= VILPACAFV ; returns value. -2.21

Query the reported log10 IC50 for HLA-A*02:01; item: NTLMFMVYV -1.16

Recorded log10 IC50 for CLSDLLGFL with HLA-A*02:01, please? -1.06

Quick check: log10 IC50 on HLA-A*02:01, item RLQHLVAEI ? -0.85

What is its log10 IC50 for HLA-A*02:01? Entry: SEEEGNFYV 1.28

GET /values?readout=log10 IC50&system=HLA-A*02:01&item= QLQAAIFHA -0.16

Short answer please: log10 IC50, HLA-A*02:01, entry SLRNVLAAV -2.27

For the record RLAEAVVSA , what value of log10 IC50 is listed for HLA-A*02:01? -1.12

Request: log10 IC50, test system HLA-A*02:01, entry FLSAKTLTV -1.96

Item GQAAALTDL with HLA-A*02:01 - log10 IC50? 0.36

Test system HLA-A*02:01; read-out log10 IC50; what value for FMQPDNANL ? -1.33

Find log10 IC50 (HLA-A*02:01) for the entry ALGLSAFGV -2.02

Test system HLA-A*02:01; read-out log10 IC50; what value for DLWNVMYTL ? -0.48

Field: log10 IC50 (HLA-A*02:01). Entry: GLFFSVYAL -1.64

Item RLVVVGWFL with HLA-A*02:01 - log10 IC50? -0.06

Under HLA-A*02:01: log10 IC50 value of MLLAFMTLV ? -2.24

###

In this section we review reported pIC50 values for a set of sequences.
- SUBJECT OF TEST: HLA-A*02:01
- MEASUREMENT NOTES: IEDB peptide-MHC binding, purified MHC/competitive/radioactivity; bounds were set here for any values at or beyond the usual limits of such assays
- CONDITION DETAILS: source organism: Human alphaherpesvirus 1
Notebook: values listed as pIC50 are -log10 of the concentration (mol/L).

Example sequences with recorded pIC50:
BIOPOLYMER SEQUENCE: ILFSYDELV
PROPERTY MEASURED: pIC50
MEASURED RESULT: 8.25
//
BIOPOLYMER SEQUENCE: KLLWAVEPL
PROPERTY MEASURED: pIC50
MEASURED RESULT: 7.92

Would you kindly look at the next entry?
# lookup: pIC50 of FAASANFFL 6.85
